- Measurement Description: amyloid nucleation score (Sup35N fusion, yeast selection) (log enrichment); library NNK2; higher = more nucleation; inactive = no reads after selection;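 note: zero at mode of non-aggregating sequences after 7 days selection at 30°C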
Assign true to entries whose amyloid nucleation score meets or exceeds 1; assign false to the rest.

Previously resolved entries follow.
- Sequence Chain: "RDQFTISETRNAVDMDWKSK"
  Assigned Label: "false"
- Sequence Chain: "LCGLSTLLFFKMDV"
  Assigned Label: "false"
- Sequence Chain: "ILLCCPVLFPINMKGSVCDK"
  Assigned Label: "true"
- Sequence Chain: "VWWSLSYFQAVRGQLFHQIV"
  Assigned Label: "false"
- Sequence Chain: "GMWRIPYGWGPCYHSCVNQG"
  Assigned Label: "true"
- Sequence Chain: "SNLSRDESRVGSTGEQGDGG"
  Assigned Label: "false"
- Sequence Chain: "AVISGCFMRGLTTRIRTTLM"
  Assigned Label: "false"
- Sequence Chain: "QLSFPSVTDLNRLAIIMLRV"
  Assigned Label: "true"

amyloid nucleation score >= 1 for "VQILSHFSADCKDDSVDQES" ? false

amyloid nucleation score >= 1 for "SSFLDRAIGGEAGRCSVWMK" ? false

amyloid nucleation score >= 1 for "MYPRPVYNIKLFLKEVWGQY" ? true

amyloid nucleation score >= 1 for "DYITCQFYLTVFELSCCMSC" ? true

amyloid nucleation score >= 1 for "RTVYFCQN" ? false

amyloid nucleation score >= 1 for "ARNTTGGSYV" ? false

###

- Measurement Description: amyloid nucleation score (Sup35N fusion, yeast selection) (log enrichment); library NNK2; higher = more nucleation; inactive = no reads after selection
Assign satisfied to entries whose amyloid nucleation score meets or exceeds 1; assign not satisfied to the rest.

- Substance: "RVNFSGIDVVRLFHYCFYMK"
  Assigned Label: "not satisfied"
- Substance: "KVLVRHLRCAISPSF"
  Assigned Label: "not satisfied"
- Substance: "CIGIWDAIEVVENREL"
  Assigned Label: "not satisfied"

Moving on to the next substance.
amyloid nucleation score >= 1 for "SLVSKIRLRGAWINSGVKTG" ? not satisfied

###

- Measurement Description: amyloid nucleation score (Sup35N fusion, yeast selection) (log enrichment); library NNK2; higher = more nucleation; inactive = no reads after selection
Our labelling divides records by amyloid nucleation score into ranges: lo (below -0.2), mid (-0.2 to below 0.7), hi (0.7 or more)

- Substance: "FCKSVHKVHGHNVWCTLCAG"
  Assigned Label: "hi"

Using the reported amyloid nucleation score, which band applies to "TFSTYSFLFVKTVI" ? lo

###

- Measurement Description: amyloid nucleation score (Sup35N fusion, yeast selection) (log enrichment); library NNK1; higher = more nucleation; inactive = no reads after selection

- Sequence Chain: "MHMGFAWMSLIM"
  amyloid nucleation score: "inactive"
- Sequence Chain: "QDAIMFGSDPLFYILLGLWG"
  amyloid nucleation score: "inactive"
- Sequence Chain: "SFFWVYHRYSMPRSLCVM"
  amyloid nucleation score: "inactive"

###

- Measurement Description: amyloid nucleation score (Sup35N fusion, yeast selection) (log enrichment); library NNK1; higher = more nucleation; inactive = no reads after selection
Quantity Kind: amyloid nucleation score

- Substance: "VLCLHWWLRTILGPLLAYAN"
  Quantity Kind: "amyloid nucleation score"
  Reported Value: "inactive"
- Substance: "GGVLLRCRTSDNTGNQRVW"
  Quantity Kind: "amyloid nucleation score"
  Reported Value: "inactive"
- Substance: "MQSMQL"
  Quantity Kind: "amyloid nucleation score"
  Reported Value: "inactive"
